Biological target: human ether-à-go-go-related gene (hERG) potassium channel (human)
Sequence (Q12809 whole entry, looked up): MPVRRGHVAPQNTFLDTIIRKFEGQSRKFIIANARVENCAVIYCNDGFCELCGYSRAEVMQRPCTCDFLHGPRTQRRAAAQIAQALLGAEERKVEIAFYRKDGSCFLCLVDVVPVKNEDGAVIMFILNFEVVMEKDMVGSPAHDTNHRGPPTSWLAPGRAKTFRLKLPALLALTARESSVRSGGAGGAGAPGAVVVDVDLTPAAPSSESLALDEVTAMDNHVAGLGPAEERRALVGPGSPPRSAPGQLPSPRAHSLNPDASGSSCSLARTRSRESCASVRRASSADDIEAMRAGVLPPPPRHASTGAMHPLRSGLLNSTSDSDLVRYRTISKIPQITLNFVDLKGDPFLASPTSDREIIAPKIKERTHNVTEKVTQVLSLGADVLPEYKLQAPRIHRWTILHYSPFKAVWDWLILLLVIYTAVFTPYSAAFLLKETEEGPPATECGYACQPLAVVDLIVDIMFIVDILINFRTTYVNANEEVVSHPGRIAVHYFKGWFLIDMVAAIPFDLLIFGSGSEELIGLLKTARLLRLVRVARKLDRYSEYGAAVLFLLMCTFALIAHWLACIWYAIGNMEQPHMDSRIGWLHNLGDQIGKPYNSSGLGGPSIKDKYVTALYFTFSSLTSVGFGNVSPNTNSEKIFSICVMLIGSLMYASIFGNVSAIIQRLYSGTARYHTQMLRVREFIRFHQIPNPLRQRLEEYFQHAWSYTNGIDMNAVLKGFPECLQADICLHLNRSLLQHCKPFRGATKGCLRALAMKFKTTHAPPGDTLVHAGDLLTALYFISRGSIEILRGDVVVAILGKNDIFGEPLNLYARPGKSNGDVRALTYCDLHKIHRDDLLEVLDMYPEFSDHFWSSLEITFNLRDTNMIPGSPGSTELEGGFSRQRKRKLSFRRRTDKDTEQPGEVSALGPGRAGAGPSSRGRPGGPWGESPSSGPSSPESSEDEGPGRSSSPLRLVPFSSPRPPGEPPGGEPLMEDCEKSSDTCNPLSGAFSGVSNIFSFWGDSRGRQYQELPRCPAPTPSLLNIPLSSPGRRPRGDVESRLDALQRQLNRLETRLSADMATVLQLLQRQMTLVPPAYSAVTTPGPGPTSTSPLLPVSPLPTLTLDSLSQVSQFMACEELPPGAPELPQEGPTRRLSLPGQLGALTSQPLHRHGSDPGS
Test: primary screen, population patch clamp on CHO cells stably expressing hERG; higher = less effect of the substance
The campaign covered roughly 310,000 compounds. About 2,200 (0.71%) showed an effect of 50% or more. The effect is printed as a negative number. The entries come from a sample that favours strong results as a whole.
recorded endpoint: hERG current change (%, negative = inhibition) at 1uM (%)
Numbers only, in %.

Count: 7. Required value per item: hERG current change (%, negative = inhibition) at 1uM.
1. CCCCCCCC(=O)Nc1ccc(C(=O)N/N=C/c2cccc([N+](=O)[O-])c2)cc1
2. Cc1ccc(C(=O)N[C@@H](C)CN2C3=NC[C@H](C(C)C)N3C[C@H]2Cc2ccc(O)cc2)cc1Br
3. COc1ccccc1C(=O)Nc1c(C(=O)N(CCN(C)C)Cc2ccco2)oc2ccccc12
4. O=C(NCc1ccccn1)/C(=N/O)c1ccccc1
5. CCN(c1ccccc1)S(=O)(=O)c1ccc(Cl)c(C(=O)NCC2CCCO2)c1 (stereo not drawn)
6. COc1ccc(C[C@@H]2CN3C(=NC[C@@H]3C)N2C[C@H](C)NC(=O)c2ccc(C)c(Br)c2)cc1
7. CC(=O)NC(=S)Nc1ccccc1N1CCN(C(=O)c2ccccc2)CC1

12.6
-34.3
-27.4
9.34
2.1
-56.4
10.6

Need hERG current change (%, negative = inhibition) at 1uM for each of these compounds.
1. O=C(CCC(=O)OCc1cccc([N+](=O)[O-])c1)Nc1ccccc1Cl
2. CCn1c(SCC(N)=O)nnc1-c1ccc(OC)c(OC)c1

1: 2.86; 2: 19.4

* * *

Target: human ether-à-go-go-related gene (hERG) potassium channel (human)
Assay: primary screen, population patch clamp on CHO cells stably expressing hERG; higher = less effect of the substance
In all, about 310,000 compounds went through this assay and about 2,200 (0.71%) showed an effect of 50% or more. Effects have a minus sign here. For the sample, strong results were picked, then their nearest neighbours and some compounds at random.
Would you mind labelling by hERG current change (%, negative = inhibition) at 1uM? At or over -30% is true, under is false.

compound: O=C(c1ccc2c(c1)OCO2)C1CCCN(Cc2cc(F)ccc2-n2cccn2)C1 (stereo not drawn)
group label: false

Does the compound "O=C(CN1CCCCCC1)Nc1ccc(Cl)cn1" have recorded hERG current change (%, negative = inhibition) at 1uM that is -30% or more?
true

* * *

Molecular target: human ether-à-go-go-related gene (hERG) potassium channel (human)
Assay: primary screen, population patch clamp on CHO cells stably expressing hERG; higher = less effect of the substance
Screen size: about 310,000 compounds; about 2,200 (0.71%) showed an effect of 50% or more. The effect is printed as a negative number. Many of the other results were omitted from the sample, so strong results are more common in it than they were.
recorded endpoint: hERG current change (%, negative = inhibition) at 1uM (%)
Answers are plain numbers, in %.

compound structure string: O=C1c2ccccc2C(=O)N1CCSc1nnc(-c2ccco2)n1Cc1ccccc1
reported measurement: -51.1
//
compound structure string: COc1cccc(-c2c(C#N)c(N)nc3c2c(C)nn3-c2ccccc2)c1O
reported measurement: 1.84
//
compound structure string: O=C(CSc1nnc(-c2ccco2)n1Cc1ccccc1)c1ccccc1
reported measurement: 8.89

Please give hERG current change (%, negative = inhibition) at 1uM, item by item, for the list that follows.
1. O=C(CSc1nnc(-c2ccc(O)cc2)o1)Nc1cccc(O)c1
2. c1ccc(CSc2nnc(-c3ccco3)n2Cc2ccccc2)cc1

1: 17.7; 2: -6.43
